Attribution: ChEMBL document CHEMBL2010802

# System: SW480
# measurement_notes: Cytotoxicity against human SW480 cells after 48 hrs by MTT assay
# Type: functional, cell-based
# settings: SW480, 48 h

{"compound_structure_string": "CC[C@@]12CC(C(=O)OC)=C3Nc4ccccc4[C@@]34CCN([C@H](CC(C)=O)[C@@H]3O[C@@H]31)[C@@H]24", "IC50 / µM": 13.5}
{"compound_structure_string": "CC[C@]12C=CCN3CC[C@]4(C(=C(C(=O)OC)C1)Nc1ccccc14)[C@@H]32", "IC50 / µM": 12.1}
{"compound_structure_string": "COC(=O)C1=C2Nc3cc(OC)ccc3[C@@]23CCN2CC=C[C@@]([C@@H](C)O)(C1)[C@H]23", "IC50 / µM": 13.1}
